List of IC50 tested on NS3 (Hepatitis C virus, UniProt A3EZJ3).
Sequence (A3EZJ3 whole entry): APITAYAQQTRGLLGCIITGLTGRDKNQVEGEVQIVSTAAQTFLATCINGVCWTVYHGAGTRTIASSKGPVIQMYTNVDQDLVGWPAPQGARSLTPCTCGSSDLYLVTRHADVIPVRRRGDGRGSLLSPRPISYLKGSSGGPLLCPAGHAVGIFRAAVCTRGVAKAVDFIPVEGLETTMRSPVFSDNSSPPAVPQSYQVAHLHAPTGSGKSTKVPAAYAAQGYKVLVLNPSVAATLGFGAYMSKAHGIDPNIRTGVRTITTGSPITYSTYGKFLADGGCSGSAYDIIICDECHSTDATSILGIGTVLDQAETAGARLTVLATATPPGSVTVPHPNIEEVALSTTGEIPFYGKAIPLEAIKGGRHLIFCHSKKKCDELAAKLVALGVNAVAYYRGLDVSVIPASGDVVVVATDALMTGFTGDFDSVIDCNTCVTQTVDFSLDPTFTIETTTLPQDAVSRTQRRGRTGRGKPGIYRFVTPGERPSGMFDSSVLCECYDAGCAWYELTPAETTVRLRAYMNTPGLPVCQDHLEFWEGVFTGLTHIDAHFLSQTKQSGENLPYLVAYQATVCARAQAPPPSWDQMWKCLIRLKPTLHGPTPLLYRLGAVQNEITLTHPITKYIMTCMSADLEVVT
measurement label: IC50 (nM)

Solved cases (5 shown):
compound="CC[C@H](NC(=O)[C@@H]1C[C@@](C)(NC(=O)Nc2ccccc2C)c2ncc(NCc3cccc(C(F)(F)F)c3)c(=O)n21)B1OC2C3CC(C[C@]2(C)O1)C3(C)C (some centres not stated)" target_under_test="NS3 (Hepatitis C virus, UniProt A3EZJ3)" measurement_label=IC50 result=780
compound="CC[C@H](NC(=O)[C@@H]1C[C@@](C)(NC(=O)NCc2ccccc2)c2ncc(NCc3cccc(C(F)(F)F)c3)c(=O)n21)B1OC2C3CC(C[C@]2(C)O1)C3(C)C (some centres not stated)" target_under_test="NS3 (Hepatitis C virus, UniProt A3EZJ3)" measurement_label=IC50 result=1200
compound="CCOc1ccccc1NC(=O)N[C@]1(C)C[C@@H](C(=O)N[C@@H](CC)B2OC3C4CC(C[C@]3(C)O2)C4(C)C)n2c1ncc(NCc1cccc(C(F)(F)F)c1)c2=O (some centres not stated)" target_under_test="NS3 (Hepatitis C virus, UniProt A3EZJ3)" measurement_label=IC50 result=160
compound="CC[C@H](NC(=O)[C@@H]1C[C@@](C)(CC(=O)Nc2ccccc2OC)c2ncc(NCc3cccc(C(F)(F)F)c3)c(=O)n21)B1OC2C3CC(C[C@]2(C)O1)C3(C)C (some centres not stated)" target_under_test="NS3 (Hepatitis C virus, UniProt A3EZJ3)" measurement_label=IC50 result=200
compound="CC[C@H](NC(=O)[C@@H]1C[C@@](C)(CC(=O)Nc2nccc3ccccc23)c2ncc(NCc3cccc(C(F)(F)F)c3)c(=O)n21)B1OC2C3CC(C[C@]2(C)O1)C3(C)C (some centres not stated)" target_under_test="NS3 (Hepatitis C virus, UniProt A3EZJ3)" measurement_label=IC50 result=440

I: CCOC(=O)c1cccc(NC(=O)N[C@]2(C)C[C@@H](C(=O)N[C@@H](CC)B3OC4C5CC(C[C@]4(C)O3)C5(C)C)n3c2ncc(NCc2cccc(C(F)(F)F)c2)c3=O)c1 (some centres not stated)
II: CC[C@H](NC(=O)[C@@H]1C[C@@](C)(NC(=O)Nc2ccc(SC)cc2)c2ncc(NCc3cccc(C(F)(F)F)c3)c(=O)n21)B1OC2C3CC(C[C@]2(C)O1)C3(C)C (some centres not stated)
III: CC[C@H](NC(=O)[C@@H]1C[C@@](C)(NC(=O)c2ccccc2)c2ncc(NCc3cccc(C(F)(F)F)c3)c(=O)n21)B1OC2C3CC(C[C@]2(C)O1)C3(C)C (some centres not stated)
IV: CC[C@H](NC(=O)[C@@H]1C[C@@](C)(CC(=O)Nc2ccccc2C(=O)OC)c2ncc(NCc3cccc(C(F)(F)F)c3)c(=O)n21)B1OC2C3CC(C[C@]2(C)O1)C3(C)C (some centres not stated)
V: CC[C@H](NC(=O)[C@@H]1C[C@@](C)(NC(=O)Nc2ccccc2Oc2ccccc2)c2ncc(NCc3cccc(C(F)(F)F)c3)c(=O)n21)B1OC2C3CC(C[C@]2(C)O1)C3(C)C (some centres not stated)
Q. Arrange these compounds by their IC50, starting with the largest number. Rank them, then answer with their labels in that order.
A. III, II, I, V, IV

A: CC[C@H](NC(=O)[C@@H]1C[C@@](C)(NC(=O)Oc2ccccc2)c2ncc(NCc3cccc(C(F)(F)F)c3)c(=O)n21)B1OC2C3CC(C[C@]2(C)O1)C3(C)C (some centres not stated)
B: CC[C@H](NC(=O)[C@@H]1C[C@@](C)(NC(=O)Nc2ccccc2[N+](=O)[O-])c2ncc(NCc3cccc(C(F)(F)F)c3)c(=O)n21)B1OC2C3CC(C[C@]2(C)O1)C3(C)C (some centres not stated)
Q. Between the entries labeled A and B , whose measured IC50 is lower? // caller expects the label of the chosen entry
A. B
(B: 180 nM, A: 1400 nM)

====

Each entry below carries its measured IC50, system: UniProt A3EZJ3.
measurement label: IC50 (nM)

Solved entries (count: 2):
compound="CC[C@H](NC(=O)[C@@H]1C[C@@](C)(NC(=O)Nc2cccc(F)c2)c2ncc(NCc3cccc(C(F)(F)F)c3)c(=O)n21)B1OC2C3CC(C[C@]2(C)O1)C3(C)C (stereo not given in full)" result=500
compound="CC[C@H](NC(=O)[C@@H]1C[C@@](C)(NC(=O)Nc2cccc(SC)c2)c2ncc(NCc3cccc(C(F)(F)F)c3)c(=O)n21)B1OC2C3CC(C[C@]2(C)O1)C3(C)C (stereo not given in full)" result=130

1: CC[C@H](NC(=O)[C@@H]1C[C@@](C)(CC(=O)Nc2ccccc2[N+](=O)[O-])c2ncc(NCc3cccc(C(F)(F)F)c3)c(=O)n21)B1OC2C3CC(C[C@]2(C)O1)C3(C)C (stereo not given in full)
2: CC[C@H](NC(=O)[C@@H]1C[C@@](C)(NC(=O)Nc2ccc(Cl)cc2)c2ncc(NCc3cccc(C(F)(F)F)c3)c(=O)n21)B1OC2C3CC(C[C@]2(C)O1)C3(C)C (stereo not given in full)
Q. For the pair 1 and 2 , which member has the lower IC50 number? Your choice should be expressed through its label.
A. 2

====

Target or system NS3 (Hepatitis C virus): recorded pIC50 listed per item.
pIC50: −log10 of the molar value.
measurement label: pIC50

1: CC[C@H](NC(=O)[C@@H]1C[C@@](C)(CC(=O)Nc2cccc(SC)c2)c2ncc(NCc3cccc(C(F)(F)F)c3)c(=O)n21)B1OC2C3CC(C[C@]2(C)O1)C3(C)C (stereo partly drawn)
2: CC[C@H](NC(=O)[C@@H]1C[C@@](C)(NC(=O)Nc2cccc(C(=O)OC)c2)c2ncc(NCc3cccc(C(F)(F)F)c3)c(=O)n21)B1OC2C3CC(C[C@]2(C)O1)C3(C)C (stereo partly drawn)
Q. Could you please tell me which of these two has the higher pIC50: 1 or 2 ? Output the label that corresponds to your choice.
A. 1
(1: 7.05, 2: 5.75)

The measured values listed here are drawn from ChEMBL document CHEMBL1136606.
